The measurements presented in this section are drawn from paper PMC9482650.

Exercise: state measured pKd for each of the binders provided.
Molecular target: LIMK1, P53667
Sequence (P53667 155-268): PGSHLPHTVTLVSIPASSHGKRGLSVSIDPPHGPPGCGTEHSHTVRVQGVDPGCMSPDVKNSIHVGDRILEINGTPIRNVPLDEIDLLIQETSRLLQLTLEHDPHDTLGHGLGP
Test: holdup assay
Design: key: below the threshold = too weak to quantify, mostly under pKd 3.1 to 4
Details: plain residues with an end cap or a label only (N-terminal biotin on a linker: ttds)
One number for each entry.

[
  {
    "Binder": "KLVIKTETTV [RASSF6, Q6ZTQ3]",
    "pKd": 4.37
  }
]

Identify pKd associated with the binder PSRDRKETSI [RALBP1, Q15311]
4.16
